System: VchCAST RNA-guided transposition machinery (E. coli BL21(DE3) host, lacZ target)
Experiment: relative integration efficiency (T-LR orientation) vs wild-type transposon end (log2 (normalized fold change)); transposon end mutated: left end; higher = more efficient transposition
VALUE KIND: relative integration efficiency (log2)

Give relative integration efficiency (log2) for the following sequence: AATGTTGTTGATGCAACCATAAAGTGATATTTAATAATTATTTATAATCAGCAACTTAACCACAAAACAACCATATATTGATATCGACACCCCACCAACGCCTGGTCGCGGGGGTGTCCGATCTGATTTCAGCAAAACTACTGCAGTAAGAA
-1.19

Note down relative integration efficiency (log2) recorded for AATGTTGTTGATGCAACCAATTTCTGATATTTAATAATTATTTATAATCAGCAACTTAACCACAAAACAACCAATATATGATATCTCACAAAACAACCAATTCATGATATTTTTGTGAATCGAGTATTTCAGCAAAACTACTGCAGTAAGAA
-1.57

Quick one: give measured relative integration efficiency (log2) for AATGTTGTTGATGTGCAACCATAAAGTGATATTTAATAATTATTTATAATCAGCAACTTAACCACAAAACAACCATATATTGATATCTCACAAAACAACCATAAGTTGATATTTTTGTGAATCGAGTATTTCAGCAAAACTACTGCAGTAAG
< -10

State its relative integration efficiency (log2): AATGTTGTTGATGCAACCATAAAGTGATATTTAATAATTATTTATAACAACCATATATTGATATCTCTCAGCAACTTAACCACAAAAACAAAACAACCATAAGTTGATATTTTTGTGAATCGAGTATTTCAGCAAAACTACTGCAGTAAGAA
-2.66

Specify relative integration efficiency (log2) for AATGTTGTTGATGCAACCATAAAGTGATATTTGCTAGCATTATACCTAGGACTGAGCTAGCTGTCAACAACCATATATTGATATCTCACAAAACAACCATAAGTTGATATTTTTGTGAATCGAGTATTTCAGCAAAACTACTGCAGTAAGAA and stop.
< -10

Please report relative integration efficiency (log2) for the following sequence: AATGTTGTTGATGCAACCATAAAGTGATATTTAATAATTATTTATAATCAGCAACTTAACCACAAAACACCCATAAATTGATAATTAACAAAAGTTGGTATTCAACTATAAAATGTGAATCGAGTATTTCAGCAAAACTACTGCAGTAAGAA
-1.11

State its relative integration efficiency (log2) for this sequence: AATGTTGTTGATGCAACCATAAAGTGATATTTACCGACTGTCTGCCATCCGCCGCTGAACCGCAGCCCAACCATATATTGATATCTCACAAAACAACCATAAGTTGATATTTTTGTGAATCGAGTATTTCAGCAAAACTACTGCAGTAAGAA
-3.04

Please indicate relative integration efficiency (log2) recorded for AATGTTGTTGATGCAACCATAAGTTGATATTTTATAATTATTTATAATCAGCAACTTAACCACAAAACAACCATAAGTTGATATTTTACAAAAGTTGGTATTCAACTATAAAATGTGAATCGAGTATTTCAGCAAAACTACTGCAGTAAGAA
-1.03

Answer with reported relative integration efficiency (log2) of AATGTTGTTGATGTAATTATCATTTTATGGTTGATAATTATTTATAATCAGCAACTTAACCACAAAATAATTATCATTTTATGGTTGACAAAATAATTATCATTTTATGGTTGTGTGAATCGAGTATTTCAGCAAAACTACTGCAGTAAGAA
< -10

Item AATGTTGTTGATGCAACCATAAGTTGATATTTTATAATTATTTATAATCAGCAACTTAACCACAAAACACCCATAAATTGATAATTAACAAAAGTTGGTATTCAACTATAAAATGTGAATCGAGTATTTCAGCAAAACTACTGCAGTAAGAA : provide relative integration efficiency (log2)
-0.777

Give recorded relative integration efficiency (log2). AATGTTGTTGATGCAACCATAAAGTGATATTTAATAATCAACCATATATTGATATCTCACAAAACAACCATAAGTTGATATTTTTGTGAATCGAGTATTTCAGCAAAACTACTGCAGTAAGAAAGTTACTTCGTGGTATGGGAGGATCAAGG
< -10

Look up relative integration efficiency (log2) of AATGTTGTTGATACAACCATAAAGTGATATTTACAACCATATATTGATATCTCTCACAACCATAAGTTGATATTTTTGTGAATCGAGTATTTCAGCAAAACTACTGCAGTAAGAAAGTTACTTCGTGGTATGGGAGGATCAAGGAGCCAATA and report it.
2.35

Quote relative integration efficiency (log2) reported for AATGTTGTTGATGCAACCATAAAGTGATATTTAACAACCATAAAGTGATATTTAACTTAACCACAAACAACCATATATTGATATCTCACAAAACAACCATAAGTTGATATTTTTGTGAATCGAGTATTTCAGCAAAACTACTGCAGTAAGAA please.
1.37

Respond only with relative integration efficiency (log2) recorded for AATGTTGTTGATGCACCCATAAATTGATAATTAATAATTATTTATAATCAGCAACTTAACCACAAAACAACCATAAAATGATAATTAACAAAAGTTGGTATTCAACTATAAAATGTGAATCGAGTATTTCAGCAAAACTACTGCAGTAAGAA
-0.947

// Input: AATGTTGTTGATGCAACCATAAAGTGATATTTAATAATTATTTATAATCAGCAACTTAACCACAAAACAACCATATATTGATATCTCACAAAACCCAACGCCTGGTCGCGGGGGTGTCCGATCTGATTTCAGCAAAACTACTGCAGTAAGAA . Output its relative integration efficiency (log2) only.
-0.934

Let me know recorded relative integration efficiency (log2) for AATGTTGTTGATGCACCCATAAATTGATATTGCATAATTATTTATAATCAGCAACTTAACCACAAAACACCCATAAATTGATATTGCACAAAAGTTGGTATTCAACTATAAAATGTGAATCGAGTATTTCAGCAAAACTACTGCAGTAAGAA , thanks.
-2.41

Please indicate relative integration efficiency (log2) recorded for AATGTTGTTGATGCAACCATAAAGTGTATAAATATAATTATTTATAATCAGCAACTTAACCACAAAACAACCATATATTGTATAGAGACAAAACAACCATAAGTTGTATAAAATGTGAATCGAGTATTTCAGCAAAACTACTGCAGTAAGAA
-3.62

Just for reference, the supplement of paper PMC10201428 is where these values come from.
